Species: Rattus norvegicus
assay: Open TG-GATES - Regimen: Single
Type: toxicity, organism-based, Sprague-Dawley
Set-up: regimen Single, gender Male, age 6 weeks
condition: in vivo, po, 100 mg/kg, 24 h, tissue Blood, route gavage, dose level Low
// values below are reported Plat
measured_property: Plat

{"columns": ["compound", "result"],
 "data": [
  ["O=NN1CCOCC1", "110.9 x10_4/uL"],
  ["CN(C)CCC=C1c2ccccc2COc2ccccc21 [DOXEPIN]", "125.2 x10_4/uL"],
  ["CCC1(c2ccccc2)C(=O)NC(=O)NC1=O", "122.9 x10_4/uL"],
  ["CN(C)C(=N)N=C(N)N", "109.9 x10_4/uL"]
]}

---

Species on record: Rattus norvegicus
assay: Open TG-GATES - Regimen: Daily Repeat
Format: toxicity, organism-based, Sprague-Dawley
Design: regimen Daily Repeat, gender Male, age 6 weeks
condition: in vivo, po, 0 mg/kg, […], tissue Plasma, route gavage, dose level Control, time 14 day
measured_property: AST (IU/L)

{"columns": ["compound", "measured_property", "number"],
 "data": [
  ["CCc1oc2ccccc2c1C(=O)c1cc(Br)c(O)c(Br)c1", "AST", 62.6],
  ["OCCOCCN1CCN(C(c2ccccc2)c2ccc(Cl)cc2)CC1 (stereo unspecified) [HYDROXYZINE]", "AST", 62.6],
  ["CCCCc1oc2ccccc2c1C(=O)c1cc(I)c(OCCN(CC)CC)c(I)c1", "AST", 70.8],
  ["ClC(Cl)(Cl)Cl [CARBON TETRACHLORIDE]", "AST", 60.2],
  ["CC1=C(CC(=O)O)c2cc(F)ccc2/C1=C\\c1ccc([S+](C)[O-])cc1 (stereo unspecified)", "AST", 66.8],
  ["CCC1(c2ccccc2)C(=O)NC(=O)NC1=O", "AST", 63.4],
  ["CC[C@H]1[C@@H]2C[C@H]3[C@@H]4N(C)c5ccccc5[C@]45C[C@@H]([C@@H]2[C@H]5O)N3[C@@H]1O", "AST", 61.4],
  ["CN(C)CCC=C1c2ccccc2COc2ccccc21 [DOXEPIN]", "AST", 67.4],
  ["O=NN(CCCl)C(=O)NC1CCCCC1", "AST", 63.4],
  ["CN(C)C(=N)N=C(N)N", "AST", 81],
  ["CC(C)N(CCC(C(N)=O)(c1ccccc1)c1ccccn1)C(C)C (stereo unspecified) [DISOPYRAMIDE]", "AST", 68]
]}

---

Species: Rattus norvegicus
assay: Open TG-GATES - Regimen: Single
Type: toxicity, organism-based, Sprague-Dawley
Parameters: regimen Single, gender Male, age 6 weeks
condition: in vivo, po, 0 mg/kg, 24 h, tissue Plasma, route gavage, dose level Control

{"columns": ["compound", "units_label", "Ca"],
 "data": [
  ["CN(C)C(=N)N=C(N)N", "mg/dL", 11.4],
  ["CC[C@H]1[C@@H]2C[C@H]3[C@@H]4N(C)c5ccccc5[C@]45C[C@@H]([C@@H]2[C@H]5O)N3[C@@H]1O", "mg/dL", 11],
  ["CCC1(c2ccccc2)C(=O)NC(=O)NC1=O", "mg/dL", 10.8],
  ["O=NN1CCOCC1", "mg/dL", 10.8],
  ["CC(C)N(CCC(C(N)=O)(c1ccccc1)c1ccccn1)C(C)C (stereo not given) [DISOPYRAMIDE]", "mg/dL", 10.7],
  ["CCc1oc2ccccc2c1C(=O)c1cc(Br)c(O)c(Br)c1", "mg/dL", 10.4],
  ["O=NN(CCCl)C(=O)NC1CCCCC1", "mg/dL", 11.3],
  ["CC1=C(CC(=O)O)c2cc(F)ccc2/C1=C\\c1ccc([S+](C)[O-])cc1 (stereo not given)", "mg/dL", 11],
  ["ClC(Cl)(Cl)Cl [CARBON TETRACHLORIDE]", "mg/dL", 10.9],
  ["OCCOCCN1CCN(C(c2ccccc2)c2ccc(Cl)cc2)CC1 (stereo not given) [HYDROXYZINE]", "mg/dL", 11.2]
]}

---

Species: Rattus norvegicus
assay: Open TG-GATES - Regimen: Single
Format: toxicity, organism-based, Sprague-Dawley
Set-up: regimen Single, gender Male, age 6 weeks
condition: in vivo, po, 0 mg/kg, 6 h, tissue Plasma, route gavage, dose level Control

{"columns": ["molecule", "TC"],
 "data": [
  ["O=NN(CCCl)C(=O)NC1CCCCC1", "78.8 mg/dL"],
  ["CC[C@H]1[C@@H]2C[C@H]3[C@@H]4N(C)c5ccccc5[C@]45C[C@@H]([C@@H]2[C@H]5O)N3[C@@H]1O", "83.6 mg/dL"],
  ["CCc1oc2ccccc2c1C(=O)c1cc(Br)c(O)c(Br)c1", "72.4 mg/dL"],
  ["CCC1(c2ccccc2)C(=O)NC(=O)NC1=O", "73.8 mg/dL"],
  ["CC1=C(CC(=O)O)c2cc(F)ccc2/C1=C\\c1ccc([S+](C)[O-])cc1 (centres undefined)", "83.6 mg/dL"],
  ["ClC(Cl)(Cl)Cl [CARBON TETRACHLORIDE]", "89.4 mg/dL"],
  ["CC(C)N(CCC(C(N)=O)(c1ccccc1)c1ccccn1)C(C)C (centres undefined) [DISOPYRAMIDE]", "72.6 mg/dL"],
  ["CN(C)CCC=C1c2ccccc2COc2ccccc21 [DOXEPIN]", "76.4 mg/dL"],
  ["OCCOCCN1CCN(C(c2ccccc2)c2ccc(Cl)cc2)CC1 (centres undefined) [HYDROXYZINE]", "81.4 mg/dL"]
]}

---

Species: Rattus norvegicus
assay: Open TG-GATES - Regimen: Daily Repeat
Format: toxicity, organism-based, Sprague-Dawley
Parameters: regimen Daily Repeat, gender Male, age 6 weeks
condition: in vivo, po, 0 mg/kg, […], tissue Plasma, route gavage, dose level Control, time 7 day
Assign labels as follows, please: yes (1) for LDH below 80 IU/L; no (0) for LDH equal to or exceeding 80 IU/L.

{"columns": ["compound", "assigned_class"],
 "data": [
  ["ClC(Cl)(Cl)Cl [CARBON TETRACHLORIDE]", "no (0)"],
  ["O=NN(CCCl)C(=O)NC1CCCCC1", "no (0)"],
  ["CCC1(c2ccccc2)C(=O)NC(=O)NC1=O", "no (0)"],
  ["CN(C)C(=N)N=C(N)N", "yes (1)"]
]}

---

Organism: Rattus norvegicus
assay: Open TG-GATES - Regimen: Single
Assay type: toxicity, organism-based, Sprague-Dawley
Design: regimen Single, gender Male, age 6 weeks
condition: in vivo, po, 100 mg/kg, 24 h, tissue Plasma, route gavage, dose level Low
// values below are reported LDH

{"columns": ["compound", "units_label", "LDH"],
 "data": [
  ["CN(C)C(=N)N=C(N)N [METFORMIN]", "IU/L", 81],
  ["CCC1(c2ccccc2)C(=O)NC(=O)NC1=O [PHENOBARBITAL]", "IU/L", 181.4],
  ["O=NN1CCOCC1 [N-NITROSOMORPHOLINE]", "IU/L", 883.2],
  ["CN(C)CCC=C1c2ccccc2COc2ccccc21 [DOXEPIN]", "IU/L", 112.6]
]}

---

Organism: Rattus norvegicus
assay: Open TG-GATES - Regimen: Single
Type: toxicity, organism-based, Sprague-Dawley
Set-up: regimen Single, gender Male, age 6 weeks
condition: in vivo, po, 0 mg/kg, 3 h, tissue Plasma, route gavage, dose level Control

{"columns": ["compound", "gamma-GTP / IU/L"],
 "data": [
  ["CN(C)CCC=C1c2ccccc2COc2ccccc21 [DOXEPIN]", 1.2],
  ["ClC(Cl)(Cl)Cl [CARBON TETRACHLORIDE]", 0.6],
  ["CC1=C(CC(=O)O)c2cc(F)ccc2/C1=C\\c1ccc([S+](C)[O-])cc1 (stereo not given)", 1],
  ["CC[C@H]1[C@@H]2C[C@H]3[C@@H]4N(C)c5ccccc5[C@]45C[C@@H]([C@@H]2[C@H]5O)N3[C@@H]1O", 2],
  ["CC(C)N(CCC(C(N)=O)(c1ccccc1)c1ccccn1)C(C)C (stereo not given) [DISOPYRAMIDE]", 1.4],
  ["OCCOCCN1CCN(C(c2ccccc2)c2ccc(Cl)cc2)CC1 (stereo not given) [HYDROXYZINE]", 1],
  ["CCc1oc2ccccc2c1C(=O)c1cc(Br)c(O)c(Br)c1", 1.8],
  ["CN(C)C(=N)N=C(N)N", 1.4],
  ["O=NN(CCCl)C(=O)NC1CCCCC1", 1.4],
  ["CCC1(c2ccccc2)C(=O)NC(=O)NC1=O", 0.8]
]}

---

// values below are reported TP
Species on record: Rattus norvegicus
assay: Open TG-GATES - Regimen: Daily Repeat
Format: toxicity, organism-based, Sprague-Dawley
Set-up: regimen Daily Repeat, gender Male, age 6 weeks
condition: in vivo, po, 0 mg/kg, […], tissue Plasma, route gavage, dose level Control, time 28 day

{"columns": ["compound", "TP [g/dL]"],
 "data": [
  ["CCCCc1oc2ccccc2c1C(=O)c1cc(I)c(OCCN(CC)CC)c(I)c1", 6],
  ["O=NN(CCCl)C(=O)NC1CCCCC1", 6.4],
  ["CN(C)CCC=C1c2ccccc2COc2ccccc21 [DOXEPIN]", 6.4],
  ["CC(C)N(CCC(C(N)=O)(c1ccccc1)c1ccccn1)C(C)C (stereo unspecified) [DISOPYRAMIDE]", 6.1],
  ["ClC(Cl)(Cl)Cl [CARBON TETRACHLORIDE]", 6],
  ["OCCOCCN1CCN(C(c2ccccc2)c2ccc(Cl)cc2)CC1 (stereo unspecified) [HYDROXYZINE]", 6.3]
]}
